All figures here come from the supplement of paper PMC11781733.

Tested on: Dugesia japonica
assay_overview: loss of phototaxis incidence (% planarians (vehicle-normalised)); higher = higher incidence or increase relative to vehicle control
condition_set: exposure time: 15 min to 3 h acute
Some compounds, each annotated with its measured loss of phototaxis incidence.

compound: Cc1cc2c(s1)Nc1ccccc1N=C2N1CCN(C)CC1 [olanzapine] (3.16 µM)
inequality_operator: ≤
loss of phototaxis incidence: 0
--
compound: O=C1CCc2ccc(OCCCCN3CCN(c4cccc(Cl)c4Cl)CC3)cc2N1 [aripiprazole] (10 µM)
inequality_operator: =
loss of phototaxis incidence: 25
--
compound: CC(NC(C)(C)C)C(=O)c1cccc(Cl)c1 (centres undefined) [bupropion] (316 µM)
inequality_operator: ≤
loss of phototaxis incidence: 0
--
compound: CN1C(=O)CN=C(c2ccccc2)c2cc(Cl)ccc21 [diazepam] (1 µM)
inequality_operator: =
loss of phototaxis incidence: 8.33
--
compound: Cc1cc2c(s1)Nc1ccccc1N=C2N1CCN(C)CC1 [olanzapine] (10 µM)
inequality_operator: =
loss of phototaxis incidence: 4.17
--
compound: O=C(CCCN1CC=C(n2c(=O)[nH]c3ccccc32)CC1)c1ccc(F)cc1 [droperidol] (10 µM)
inequality_operator: =
loss of phototaxis incidence: 54.2
--
compound: CN1CCN(C2=Nc3cc(Cl)ccc3Nc3ccccc32)CC1 [clozapine] (1 µM)
inequality_operator: =
loss of phototaxis incidence: 8.33
--
compound: CN1CCN(C2=Nc3cc(Cl)ccc3Nc3ccccc32)CC1 [clozapine] (31.6 µM)
inequality_operator: =
loss of phototaxis incidence: 54.2
--
compound: CN(C)CCCN1c2ccccc2CCc2ccccc21 [imipramine] (31.6 µM)
inequality_operator: =
loss of phototaxis incidence: 20.8

----------
System: Dugesia japonica
assay_overview: loss of heat-induced scrunching incidence (% planarians (vehicle-normalised)); higher = higher incidence or increase relative to vehicle control
condition_set: exposure time: 15 min to 3 h acute
Counter-ions that a name gives are not always drawn.
Catalogue of loss of heat-induced scrunching incidence readings, one per entry.
parameter_measured: loss of heat-induced scrunching incidence

compound: Cc1ncc2n1-c1ccc(Cl)cc1C(c1ccccc1F)=NC2 [midazolam] (17.8 µM)
inequality_operator: ≤
measured_result: 0
//
compound: CNCCC(Oc1ccc(C(F)(F)F)cc1)c1ccccc1 (centres undefined) [fluoxetine hydrochloride] (3.16 µM)
inequality_operator: =
measured_result: 16.7
//
compound: CN1CCN(C2=Nc3cc(Cl)ccc3Nc3ccccc32)CC1 [clozapine] (1 µM)
inequality_operator: =
measured_result: 4.17
//
compound: O=C(CCCN1CCC(O)(c2ccc(Br)cc2)CC1)c1ccc(F)cc1 [bromperidol] (3.16 µM)
inequality_operator: =
measured_result: 47.6

----------
System: Dugesia japonica
assay_overview: loss of phototaxis incidence (% planarians (vehicle-normalised)); higher = higher incidence or increase relative to vehicle control
condition_set: exposure time: 15 min to 3 h acute
Structures can show the parent of a compound that is named as a salt.
Kindly return Condition met if reported loss of phototaxis incidence is no lower than 20; return Condition not met if it is lower.

compound: CNCC[C@H](Oc1cccc2ccccc12)c1cccs1 [s-duloxetine] (1 µM)
class_name: Condition not met
--
compound: CNCC[C@H](Oc1cccc2ccccc12)c1cccs1 [s-duloxetine] (100 µM)
class_name: Condition met
--
compound: CN1CCN(C2=Nc3cc(Cl)ccc3Nc3ccccc32)CC1 [clozapine] (10 µM)
class_name: Condition met
--
compound: CCCCNc1c(C(=O)OCC)c(C)nc2c1cnn2CC [tracazolate hydrochloride] (1 µM)
class_name: Condition not met
--
compound: O=C1CCc2ccc(OCCCCN3CCN(c4cccc(Cl)c4Cl)CC3)cc2N1 [aripiprazole] (100 µM)
class_name: Condition met
--
compound: CNCC[C@H](Oc1cccc2ccccc12)c1cccs1 [s-duloxetine] (3.16 µM)
class_name: Condition not met
--
compound: Cc1ncc2n1-c1ccc(Cl)cc1C(c1ccccc1F)=NC2 [midazolam] (56.2 µM)
class_name: Condition not met
--
compound: Cc1cc2c(s1)Nc1ccccc1N=C2N1CCN(C)CC1 [olanzapine] (100 µM)
class_name: Condition not met
--
compound: CN(C)CCC[C@@]1(c2ccc(F)cc2)OCc2cc(C#N)ccc21 [escitalopram] (100 µM)
class_name: Condition not met

----------
Tested on: Dugesia japonica
assay_overview: loss of heat-induced scrunching incidence (% planarians (vehicle-normalised)); higher = higher incidence or increase relative to vehicle control
condition_set: exposure time: 15 min to 3 h acute
Structures can show the parent of a compound that is named as a salt.
Given measured loss of heat-induced scrunching incidence, output 1 (yes) if it is greater than or equal to 30 and 0 (no) if not.

molecule: CN1C(=O)CN=C(c2ccccc2)c2cc(Cl)ccc21 [diazepam] (100 µM)
class_name: 1 (yes)

molecule: O=C(CCCN1CCC(O)(c2ccc(Cl)cc2)CC1)c1ccc(F)cc1 [haloperidol] (3.16 µM)
class_name: 0 (no)

molecule: O=C(CCCN1CC=C(n2c(=O)[nH]c3ccccc32)CC1)c1ccc(F)cc1 [droperidol] (31.6 µM)
class_name: 1 (yes)

molecule: CN(C)CCC[C@@]1(c2ccc(F)cc2)OCc2cc(C#N)ccc21 [escitalopram] (100 µM)
class_name: 0 (no)

molecule: CN1CCN(C2=Nc3cc(Cl)ccc3Nc3ccccc32)CC1 [clozapine] (3.16 µM)
class_name: 1 (yes)

molecule: O=C(O)C(=O)O [oxalic acid] (1000 µM)
class_name: 1 (yes)

molecule: CN(C)CCCN1c2ccccc2CCc2ccccc21 [imipramine] (31.6 µM)
class_name: 0 (no)

molecule: O=C(O)/C=C\C(=O)O [maleic acid] (200 µM)
class_name: 1 (yes)

molecule: O=C(CCCN1CCC(O)(c2ccc(Br)cc2)CC1)c1ccc(F)cc1 [bromperidol] (31.6 µM)
class_name: 1 (yes)

molecule: CN1CCN(CCCN2c3ccccc3Sc3ccc(Cl)cc32)CC1 [prochloroperazine] (1 µM)
class_name: 0 (no)

molecule: CC(NC(C)(C)C)C(=O)c1cccc(Cl)c1 (stereo not given) [bupropion] (100 µM)
class_name: 0 (no)

molecule: CN[C@H]1CC[C@@H](c2ccc(Cl)c(Cl)c2)c2ccccc21 [sertraline hydrochloride] (1 µM)
class_name: 0 (no)

molecule: CNCCC(Oc1ccc(C(F)(F)F)cc1)c1ccccc1 (stereo not given) [fluoxetine hydrochloride] (100 µM)
class_name: 1 (yes)

molecule: CN(C)CCCC1(c2ccc(F)cc2)OCc2cc(C#N)ccc21 (stereo not given) [citalopram hydrobromide] (10 µM)
class_name: 0 (no)

molecule: O=C1CC2(CCCC2)CC(=O)N1CCCCN1CCN(c2ncccn2)CC1 [buspirone] (10 µM)
class_name: 0 (no)

molecule: CN1CC(=O)N=C1NC(=O)Nc1cccc(Cl)c1 [fenobam] (100 µM)
class_name: 0 (no)

molecule: CN1CCN(CCCN2c3ccccc3Sc3ccc(Cl)cc32)CC1 [prochloroperazine] (31.6 µM)
class_name: 1 (yes)

molecule: O=C1CC2(CCCC2)CC(=O)N1CCCCN1CCN(c2ncccn2)CC1 [buspirone] (1 µM)
class_name: 0 (no)

molecule: CN1CCN(C2=Nc3cc(Cl)ccc3Nc3ccccc32)CC1 [clozapine] (100 µM)
class_name: 1 (yes)

molecule: CCCCNc1c(C(=O)OCC)c(C)nc2c1cnn2CC [tracazolate hydrochloride] (10 µM)
class_name: 0 (no)

molecule: CN1CC(=O)N=C1NC(=O)Nc1cccc(Cl)c1 [fenobam] (562 µM)
class_name: 0 (no)

molecule: O=C1CCc2ccc(OCCCCN3CCN(c4cccc(Cl)c4Cl)CC3)cc2N1 [aripiprazole] (31.6 µM)
class_name: 1 (yes)

molecule: CN1CC(=O)N=C1NC(=O)Nc1cccc(Cl)c1 [fenobam] (178 µM)
class_name: 0 (no)

molecule: CN(C)CCC[C@@]1(c2ccc(F)cc2)OCc2cc(C#N)ccc21 [escitalopram] (10 µM)
class_name: 0 (no)

molecule: CN1CC(=O)N=C1NC(=O)Nc1cccc(Cl)c1 [fenobam] (316 µM)
class_name: 0 (no)

molecule: O=C(O)C(=O)O [oxalic acid] (100 µM)
class_name: 0 (no)

molecule: CC(NC(C)(C)C)C(=O)c1cccc(Cl)c1 (stereo not given) [bupropion] (316 µM)
class_name: 0 (no)

molecule: CN(C)CCCC1(c2ccc(F)cc2)OCc2cc(C#N)ccc21 (stereo not given) [citalopram hydrobromide] (31.6 µM)
class_name: 1 (yes)

molecule: O=C1CCc2ccc(OCCCCN3CCN(c4cccc(Cl)c4Cl)CC3)cc2N1 [aripiprazole] (10 µM)
class_name: 0 (no)

molecule: CN1CCN(CCCN2c3ccccc3Sc3ccc(Cl)cc32)CC1 [prochloroperazine] (10 µM)
class_name: 1 (yes)

molecule: CN[C@H]1CC[C@@H](c2ccc(Cl)c(Cl)c2)c2ccccc21 [sertraline hydrochloride] (100 µM)
class_name: 0 (no)

molecule: Cc1cc2c(s1)Nc1ccccc1N=C2N1CCN(C)CC1 [olanzapine] (31.6 µM)
class_name: 1 (yes)
